test system: TK-10 renal; assay: NCI-60 one-dose screen, 48 h; conditions: 10 µM unless noted
This is part of a sample that, as a whole, favours compounds with a hit. Of some 83,000 tested, about 20% had one in any assay. Activity calls are given as the source filed them. The calls were made as follows: active = growth percent below 10; inactive = the rest.
Result category, one only: active, inactive

CC1(C)CC(O)CCCCCCOc2c(CN)cccc2NC(=O)c2nc(cnc2N)-c2ccc(cc2)S1(=O)=O (centres undefined) = inactive
N=C1C(c2nc3ccccc3s2)=C(O)CN1c1cc(Cl)cc(Cl)c1 = inactive
CC(=O)Nc1cccc(-c2ccc3c(c2)NC(=O)/C3=C\c2ccc[nH]2)c1 = inactive
Cc1ccc(-c2nc3ccccn3c2/C=C2/C(=O)Nc3cc(Cl)ccc32)cc1 = inactive
CCN1C(=O)N(CC)C2Nn3c(s/c(=C\c4ccc(OC)cc4)c3=O)=NC21 (centres undefined) = inactive

Qu. Status in this test for COc1cc(NC(C)CCCNC(=O)CCC(=O)NCCCNCCCCCCCCNCCCNC(=O)CCC(=O)NCCCC(C)Nc2cc(OC)cc3cccnc23)c2ncccc2c1 (centres undefined) ?
Ans. inactive

Qu. What did this assay record as the result for CC(C)=CCC[C@](C)(O)[C@H]1CC[C@]2(C)[C@@H]1CC[C@@H]1[C@@]3(C)C/C(=C/c4ccccc4)C(=O)C(C)(C)[C@@H]3CC[C@]12C ?
Ans. inactive

Qu. Each compound tested received a call. Report the one for O=C(Nc1cccc(C(=O)N2CCc3ccc(Cl)cc32)c1)c1ccco1 .
Ans. inactive

Qu. Assay result, entry Oc1ccc(OCCOc2ccc(O)cc2)cc1 — outcome?
Ans. inactive

Qu. Check the results log: what was the call for COC1=CC(=O)c2ccccc2C1=O ?
Ans. inactive

Qu. Assay outcome for COc1cc(NC(=O)CSc2nc3ccc(C)cc3c(=O)n2Cc2ccccc2)cc(OC)c1OC : what was it?
Ans. inactive

Qu. Write down the call the test reported for this compound. Item: CC1=CCC(OC(=O)C(C)(O)CCC(O)(C(=O)OC2(C)C=CC(O)(C(C)C)CC2)C(C)C)(C(C)C)CC1 (centres undefined)
Ans. inactive

Qu. Could you kindly confirm the outcome this assay logged for N#CC(C(=O)/C(=N/NC(=O)c1ccccc1O)C(C#N)c1ccccc1)c1ccccc1 (centres undefined) ?
Ans. inactive

Qu. Recorded test outcome, item O=C1/C=C/[C@@H](O)[C@@H]2C[C@@H](O)C[C@H]2/C=C/CCC[C@H](CCc2ccc3ncccc3c2)O1
Ans. active

Qu. Record request — test call for Oc1cccc(CCc2ccc(Oc3cc(CCc4cccc(O)c4)cc(O)c3O)cc2)c1
Ans. inactive

Qu. Record request — test call for CCN(Cc1ccccc1)c1ccc(C=O)cc1
Ans. inactive

* * *

system: KM12 colon; assay: NCI-60 one-dose screen, 48 h (100 = growth as untreated, 0 = no growth, -100 = all killed); details: 10 µM unless noted
The panel holds about 83,000 compounds, 20% with a hit somewhere; the sample as a whole holds those more often.
Lab note: compare growth against 30%. Equal or greater, write Condition met. Smaller, write Condition not met.

Qu. Entry COc1cc2c(=O)n(CCN)c3c4cc5c(cc4ccc3c2cc1OC)OCO5 : is its growth no less than 30%?
Ans. Condition not met

Qu. Could you verify whether the entry O=C1c2ccccc2C(=O)c2c([N+](=O)[O-])ccc(Cl)c21 shows growth of no less than 30%?
Ans. Condition met

Qu. Decide: is the reported value of growth for O=c1[nH]nc(-c2ccccc2)c2sc3ncc(-c4ccc(Br)cc4)n3c12 equal to or greater than 30%?
Ans. Condition met

Qu. Please indicate if the recorded growth for O=C(CNCCN1CCOCC1)N1c2cccc3cccc(c23)N(C(=O)CNCCN2CCOCC2)C1c1cn(-c2ccccc2)nc1-c1cccc([N+](=O)[O-])c1 meets or exceeds 30%.
Ans. Condition met

Qu. API: above_or_equal(metric=growth, cutoff=30%) for item Cc1nc2sccn2c1-c1nc2sccn2c1/C=C1/C(=O)Nc2ccccc21
Ans. Condition not met

Qu. Entry NC(=NCc1ccccc1)C(N=Nc1ccccc1)C(=O)NCc1ccccc1 (stereo not drawn) : is its growth no less than 30%?
Ans. Condition met

Qu. Form field: growth at least 30%? Entry: CCOC(=O)CC1CSC(N/N=C/c2ccc(-n3cccn3)cc2)=N1 (stereo not drawn)
Ans. Condition met

Qu. Is reported growth greater than or equal to 30% here: Cc1nn(-c2ccccc2)c(Cl)c1/C=N\N=c1/sc2ccccc2n1C
Ans. Condition met

Qu. Exam item: decide whether the reported growth for CC(=O)OC[C@]12CC[C@@H](C(=O)CBr)[C@@H]1[C@H]1CC[C@@H]3[C@@]4(C)CC[C@H](OC(C)=O)C(C)(C)[C@@H]4CC[C@@]3(C)[C@]1(C)CC2 is at least 30%.
Ans. Condition met

Qu. Exam item: decide whether the reported growth for O=C(/C=C(/C=C/c1coc2ccccc12)OB(F)F)/C=C/c1coc2ccccc12 is at least 30%.
Ans. Condition met

Qu. Dear colleague, could you confirm whether Cc1cc2c(C(=O)NCC#N)cccc2n1-c1nc2c(c(NCc3ccccc3)n1)CCCC2 has growth at or above 30%?
Ans. Condition not met

Qu. Is reported growth greater than or equal to 30% here: CCC(=O)Oc1ccc(/C(=C(\C)c2ccccc2)c2ccc(OCCN3CCCCC3)cc2)cc1
Ans. Condition met

Qu. Hi, just wondering whether Cc1cc(C(=O)/C=C/c2ccc[nH]2)ccc1-n1ccc(C(F)(F)F)n1 shows growth of 30% or higher.
Ans. Condition not met

Qu. For this compound, is measured growth 30% or higher? CC(C)=CCC[C@](C)(O)[C@H]1CC[C@]2(C)[C@@H]1CC[C@@H]1[C@@]3(C)C/C(=C/c4ccccc4)C(=O)C(C)(C)[C@@H]3CC[C@]12C
Ans. Condition met

Qu. Given COc1cc(CC(=O)c2ccc(O)c(OC)c2)ccc1O , state whether its growth is at least 30%.
Ans. Condition met

Qu. API: above_or_equal(metric=growth, cutoff=30%) for item COc1cc(/C=C2\COc3ccc(-c4ccccc4)cc3C2=O)cc(OC)c1
Ans. Condition met

Qu. Is it the case that CCOC(=O)c1cc(C(=O)c2ccc(OC)c(OC)c2)n2ccc(/C=C/c3cc[n+](CC(=O)c4ccc(OC)c(OC)c4)cc3)cc12 has growth reaching or exceeding 30%?
Ans. Condition met

Qu. Could you tell me if the measured growth of Nc1n[nH]c2cccc(C#Cc3cccc(C(=O)Nc4cc(CN5CCOCC5)cc(C(F)(F)F)c4)c3)c12 reaches 30% or more?
Ans. Condition not met

* * *

system: 786-0 renal; test: NCI-60 one-dose screen, 48 h (100 = growth as untreated, 0 = no growth, -100 = all killed); conditions: 10 µM unless noted
This is part of a sample that, as a whole, favours compounds with a hit. Of some 83,000 tested, about 20% had one in any assay. Activity calls are given as the source filed them. Rule for the calls: active = growth percent below 10; inactive = the rest.
MEASURED QUANTITY: growth

# count of solved cases: 4
COc1ccc(C(=O)NNc2nc(Cl)nc(N3CCN(C(c4ccccc4)c4ccccc4)CC3)n2)cc1 = 69.1% (inactive)
Cc1nn(-c2ccccc2)c(Cl)c1/C=N\N=c1/sc2ccccc2n1C = 92.6% (inactive)
COc1cccc(-c2nc3occn3c2-c2ccnc(NCCNS(=O)(=O)c3ccc(C(F)(F)F)cc3)n2)c1 = 79.5% (inactive)
O=Cc1ccc(-c2cn3ccnc3c(-c3ccc4ncn(Cc5ccccc5)c4c3)n2)cc1 = 53.3% (inactive)

Consider C[C@H]1[C@H]2[C@H]3CC[C@@H]4[C@@]5(C)CC[C@H](O)C(C)(C)[C@@H]5CC[C@@]4(C)[C@]3(C)CC[C@]23CO[C@]1(C)[C@@H](C(=O)/C=C\c1ccco1)C3 . Its measured growth is 104% (inactive)

* * *

system: HCT-116 colon; test: NCI-60 one-dose screen, 48 h (100 = growth as untreated, 0 = no growth, -100 = all killed); conditions: 10 µM unless noted
This is part of a sample that, as a whole, favours compounds with a hit. Of some 83,000 tested, about 20% had one in any assay. Activity calls are given as the source filed them. The calls were made as follows: active = growth percent below 10; inactive = the rest.
Kindly state growth for each of the entries shown.

O=C1Nc2ccccc2/C1=C\c1c(-c2ccc(F)cc2)nc2ccccn12 = 64.2% (inactive)

Provide growth for all items below, preserving their order.
1. O=C1c2cccc3c(-c4ccc5c(c4)ncn5C4CCCCC4)ccc(c23)C(=O)N1CCO
2. CC(C)(C)c1cc(C=O)cc(C(C)(C)C)c1O
3. CCOC(=O)[C@@H](C)C[C@H](Cc1ccccc1)NC(=O)c1csc([C@@H](C[C@H](C(C)C)N(C)C(=O)[C@@H](NC(=O)[C@H]2C[C@H](O[Si](C)(C)C(C)(C)C)CCN2C)C(C)C)OC(C)=O)n1

Ans.
80% (inactive)
92.9% (inactive)
-25.9% [9.25 µM] (active)
